System: UACC-62 melanoma
test.method.notes: NCI tumour cell line growth inhibition, 48 h; in the data active = GI50 below about 0.43 µM; inactive = the rest
Allowed answers: Yes for active, No for inactive

Please review the entries below; each comes with its answer.
Outcome logged for CCN(c1ccc(CO)c(Cl)c1)C(C)c1ccc(F)cc1 (stereo not drawn) in this assay: No

Outcome logged for COc1cc(Nc2ccnc(N3CCN(c4ccnc5cc(Cl)ccc45)CC3)n2)cc(OC)c1 in this assay: No

I would be grateful if you could indicate the recorded call for COc1ccc(C(=O)N2c3ccccc3Sc3ccccc32)c(F)c1 . Yes

// param item: CC(C)N(C(C)C)[PH+]1O[PH+](N(C(C)C)C(C)C)O[PH+](N(C(C)C)C(C)C)O[PH+](N(C(C)C)C(C)C)O[PH+](N(C(C)C)C(C)C)O1.[C-]#[O+].[C-]#[O+].[C-]#[O+].[C-]#[O+].[C-]#[O+].[C-]#[O+].[C-]#[O+].[Cr].[Cr] (stereo not drawn) ; yields the recorded call No

Lab log entry: COc1ccc(-n2nnc3c(sc4ccccc43)c2=O)cc1 — outcome as called in the assay? No

Please share the test call associated with CCN(CCCCCCCCCCN1CC(=O)N(CCCCCCCCCCN(CC)Cc2ccccc2OC)CC1=O)Cc1ccccc1OC . No

More entries:
Which outcome was entered for the compound C/C(=N\O)c1ccc(Nc2cc(-n3nnc4ccccc43)nc3ccccc23)cc1 in this test? No

Status in this test for COc1cc(C2c3cc4c(cc3[C@@H](Nc3ccc(N(C)C)cc3)[C@H]3COC(=O)C23)OCO4)cc(OC)c1O (stereo partly drawn) ? Yes
